# System: T-47D breast
# Assay protocol: NCI-60 one-dose screen, 48 h (100 = growth as untreated, 0 = no growth, -100 = all killed)
# Assay context: 10 µM unless noted
The panel holds about 83,000 compounds, 20% with a hit somewhere; the sample as a whole holds those more often.
Readings of growth for the listed molecules
Respond numerically; units are % and should not be typed.

// sample Cn1cc(-c2nc(-c3c[nH]c4c(Cl)nccc34)cs2)c2cc(Br)ccc21 , its growth was 39.1

Next:
// sample N=C(N)c1ccc(OCCCCCCCCCCOc2ccc(C(=N)N)cc2)cc1 , its growth was -59.1

// sample CC(C)(C)c1cc(C=O)cc(C(C)(C)C)c1O , its growth was 110

// sample COc1ccc(C(=O)Nc2cccc(C3CCc4c(cc(OC)c(OC)c4OC)O3)c2)cc1 (stereo not drawn) , its growth was 15.8

// sample NCCCCCCNc1cc(-c2cccc(OC(F)(F)F)c2)nc2ccc(N3CCCC3)cc12 , its growth was -15.4

// sample COc1cc(F)c(/C=C/c2cc(/C=C/c3cc(OC)c(OC)cc3F)on2)cc1OC , its growth was 79

// sample O=C(NCCc1ccccc1)Nc1ccc2cc3ccc(NC(=O)NCCc4ccccc4)cc3nc2c1 , its growth was 29.7

// sample COc1cc2nc(-c3ccc(C(F)(F)F)cc3)cc(OCCN3CCCCC3)c2cc1OC , its growth was 85.1

---

# System: COLO 205 colon
# Assay protocol: NCI-60 one-dose screen, 48 h
# Assay context: 10 µM unless noted
Compounds without any hit were thinned out: in the full panel of roughly 83,000, 20% have a hit. Active and inactive are the calls of the source. How the source made its calls: active means growth percent below 10; inactive means the rest.
Hello, when you answer, please use one of the following outcomes: active, inactive

Answered examples (3):
Status in this test for COc1ccc(/C=C2\COc3ccc(-c4ccccc4)cc3C2=O)c(OC)c1 ? inactive

Status in this test for CCOC(=O)Nc1ccc(-c2ccc3c(c2)NC(=O)/C3=C\c2ccc[nH]2)cc1 ? inactive

Status in this test for N#C/C(=C\c1ccc([N+](=O)[O-])s1)c1nc2cc(Cl)ccc2s1 ? active

Next:
Status in this test for CC(Sc1nc2sc3c(c2c(=O)n1-c1ccc(Cl)cc1)CCCC3)C(=O)Nc1nc(-c2ccc(Br)cc2)cs1 (stereo not drawn) ? inactive

Status in this test for C=C1C(=O)O[C@H]2[C@H]1CC/C(C(=O)NCCCCCNC(=O)/C1=C/CC[C@@]3(C)O[C@H]3[C@H]3OC(=O)C(=C)[C@@H]3CC1)=C\CC[C@@]1(C)O[C@@H]21 ? inactive

Status in this test for O=C(NNc1nc2c(F)cccc2n2cccc12)c1cnccn1 ? active

---

# System: SNB-75 CNS
# Assay protocol: NCI-60 one-dose screen, 48 h (100 = growth as untreated, 0 = no growth, -100 = all killed)
# Assay context: 10 µM unless noted
# Method: Growth inhibition of the SNB-75 human tumor cell line is measured as a screen for anti-cancer activity. Cells are grown in 96 well plates and exposed to the test compound for 48 hours. Compounds are tested at a single concentration, which is 10^-5 M for most compounds. The reported endpoint is percent growth (GI% or GIPRCNT), where numbers from 0 - 100% represent growth inhibition, and numbers from -100% - 0 represent cell death. For example, a value of 40 represents 60% growth inhibition. […]
Compounds without any hit were thinned out: in the full panel of roughly 83,000, 20% have a hit. Activity calls are given as the source filed them. How the source made its calls: active means growth percent below 10; inactive means the rest.
Measured parameter: growth

Consider the worked cases shown below.
The measured growth that N=C1C(c2nc3ccccc3s2)=C(O)CN1c1cc(Cl)cc(Cl)c1 showed for SNB-75 CNS is 128% (inactive)

The measured growth that COc1ccc2c(c1)oc1c(C)c3c(c(C)c12)C(=O)N(CCN1CCOCC1)C3=O showed for SNB-75 CNS is 99.5% (inactive)

The measured growth that O=S(=O)(NCCNc1nccc(-c2c(-c3cccc(F)c3)nc3sccn23)n1)c1ccc(Cl)cc1 showed for SNB-75 CNS is 78.9% (inactive)

The measured growth that O=C(Nc1ncc(Cc2cc(Cl)ccc2Cl)s1)c1cccs1 showed for SNB-75 CNS is 72.5% (inactive)

The measured growth that CCOC(=O)CC1CSC(N/N=C/c2ccc(-n3cccn3)cc2)=N1 (stereo not drawn) showed for SNB-75 CNS is 101% (inactive)

Next:
The measured growth that CCCCC/C=C/C(C)=C/C1CC(C)C/C=C/CCC(O)C(OC(N)=O)CCC(C)CC(O)C(C)C(=O)O1 (stereo not drawn) showed for SNB-75 CNS is 98.9% (inactive)

The measured growth that O=S(=O)(NCCCNc1nccc(-c2c(-c3cccc(F)c3)nc3sccn23)n1)c1cccc(F)c1 showed for SNB-75 CNS is 88.6% (inactive)

The measured growth that O=C(CNCCN1CCOCC1)N1c2cccc3cccc(c23)N(C(=O)CNCCN2CCOCC2)C1c1cn(-c2ccccc2)nc1-c1cccc([N+](=O)[O-])c1 showed for SNB-75 CNS is 57.9% (inactive)

Cited source: PubChem BioAssay (NCI)
